The measurements presented in this section are drawn from patent US8119681B2.

- measured.target: human GR (Homo sapiens, UniProt P04150)
- Sequence (P04150 1-777): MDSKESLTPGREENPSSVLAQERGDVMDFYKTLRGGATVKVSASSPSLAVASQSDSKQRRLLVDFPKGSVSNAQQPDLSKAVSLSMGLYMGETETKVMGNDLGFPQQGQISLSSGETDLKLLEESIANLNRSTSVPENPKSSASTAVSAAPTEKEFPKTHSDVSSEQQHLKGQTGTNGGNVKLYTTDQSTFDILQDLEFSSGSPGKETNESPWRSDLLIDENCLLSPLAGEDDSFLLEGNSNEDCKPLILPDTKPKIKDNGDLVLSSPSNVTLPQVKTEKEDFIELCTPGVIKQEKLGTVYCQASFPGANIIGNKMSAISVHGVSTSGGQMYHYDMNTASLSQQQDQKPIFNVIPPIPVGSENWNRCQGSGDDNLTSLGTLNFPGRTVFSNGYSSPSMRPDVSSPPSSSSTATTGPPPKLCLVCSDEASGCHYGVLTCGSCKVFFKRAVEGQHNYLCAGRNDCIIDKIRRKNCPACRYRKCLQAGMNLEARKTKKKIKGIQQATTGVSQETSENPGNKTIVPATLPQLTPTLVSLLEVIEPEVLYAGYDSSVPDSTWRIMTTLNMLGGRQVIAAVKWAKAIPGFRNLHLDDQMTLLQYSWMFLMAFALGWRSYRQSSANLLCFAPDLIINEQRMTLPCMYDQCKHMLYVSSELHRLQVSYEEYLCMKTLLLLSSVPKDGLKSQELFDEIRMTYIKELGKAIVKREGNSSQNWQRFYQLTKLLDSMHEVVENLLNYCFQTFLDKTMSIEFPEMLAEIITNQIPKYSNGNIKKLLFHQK
- experiment.summary: Transrepression Assay (GITAR), TNFα-β-lactamase reporter gene in U937 cells
- Assay type: cell-based
- Parameters: U937 cells contain an endogenous glucocorticoid receptor (GR); endogenous in cells; host or cells: U937 cells stably transfected with the TNF-α promoter/β-lactamase reporter only
- condition.details: Table 1; separation of GITAR Emax over GRAMMER Emax
assay.endpoint: GITAR > GRAMM % SEP

Below, 8 molecules whose answers are already recorded.
                                   molecule       assay_endpoint  endpoint_result
0  C[C@]12Cc3cnn(-c4ccc(F)cc4)c3C=C1CC[C@@]2(O)CCc1ccc(Cl)cc1C(N)=O [Example 170]  GITAR > GRAMM % SEP              42%
1  CC(C)CNC(=O)c1c(F)cccc1CC[C@]1(O)CCC2=Cc3c(cnn3-c3ccc(F)cc3)C[C@@]21C [Example 61]  GITAR > GRAMM % SEP              44%
2  COC(=O)C1(NC(=O)c2ccccc2CC[C@]2(O)CCC3=Cc4c(cnn4-c4ccc(F)cc4)C[C@@]32C)CC1 [Example 26]  GITAR > GRAMM % SEP              15%
3  Cc1ccc(C(N)=O)c(CC[C@]2(O)CCC3=Cc4c(cnn4-c4ccc(F)cc4)C[C@@]32C)c1 [Example 174]  GITAR > GRAMM % SEP              41%
4  CN(C)S(=O)(=O)Nc1c(F)cccc1CC[C@]1(O)CCC2=Cc3c(cnn3-c3ccc(F)cc3)C[C@@]21C [Example 113]  GITAR > GRAMM % SEP              39%
5  C[C@H](CNC(=O)c1ccccc1CC[C@]1(O)CCC2=Cc3c(cnn3-c3ccc(F)cc3)C[C@@]21C)C(F)(F)F [Example 45]  GITAR > GRAMM % SEP              52%
6  COc1cccc(CC[C@]2(O)CCC3=Cc4c(cnn4-c4ccc(F)cc4)C[C@@]32C)c1C(N)=O [Example 189]  GITAR > GRAMM % SEP              31%
7  CCS(=O)(=O)Nc1ccccc1CC[C@]1(O)CCC2=Cc3c(cnn3-c3ccc(F)cc3)C[C@@]21C [Example 114]  GITAR > GRAMM % SEP              34%

Now look at this entry.
Noted GITAR > GRAMM % SEP for CC(C)C(O)(C(N)=O)c1ccccc1CC[C@]1(O)CCC2=Cc3c(cnn3-c3ccc(F)cc3)C[C@@]21C (stereo partly drawn) [Example 201] , tested on human GR (Homo sapiens, UniProt P04150): 38%
